tested.system: G protein-coupled estrogen receptor (GPER) (Homo sapiens, UniProt Q99527)
Construct: siRNA was used to knock-down expression of GPER; endogenous in cells; host or cells: HL-60 (human myelocytic leukemia) cells
Sequence (Q99527 whole entry): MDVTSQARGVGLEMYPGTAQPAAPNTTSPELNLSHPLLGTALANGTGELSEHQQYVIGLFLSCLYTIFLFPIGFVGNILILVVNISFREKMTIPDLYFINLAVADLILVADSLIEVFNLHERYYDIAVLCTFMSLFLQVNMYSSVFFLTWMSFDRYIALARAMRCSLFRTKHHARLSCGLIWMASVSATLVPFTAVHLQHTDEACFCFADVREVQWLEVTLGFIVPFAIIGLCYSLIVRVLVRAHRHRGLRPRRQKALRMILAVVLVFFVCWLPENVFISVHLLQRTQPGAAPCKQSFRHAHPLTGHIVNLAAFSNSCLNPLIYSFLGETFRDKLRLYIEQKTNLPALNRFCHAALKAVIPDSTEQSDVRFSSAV
assay.protocol: HTRF cAMP formation assay in HL-60 cells
Assay type: cell-based
condition: values with * unexplained
Values of EC50 strictly less than 900 nM map to fulfilled, and values of at least 900 nM map to not fulfilled.

Consider the worked cases shown below.
{"compound": "CC(C)c1ccc(NCc2ccoc2)c(C2CCCCC2)c1 [Compound 2]", "cat": "not fulfilled"}
{"compound": "CC(C)c1ccc(NCc2ccc(C3CCCCO3)o2)c(C2CCCCC2)c1 (stereo not shown) [Compound 4]", "cat": "fulfilled"}
{"compound": "COc1ccc(CNc2ccc(C(C)C)cc2C2CCCCC2)cn1 [Compound 6]", "cat": "not fulfilled"}
{"compound": "CCOCc1ccc(CNc2ccc(C(C)C)cc2C2CCCCC2)o1 [Compound 5]", "cat": "fulfilled"}
{"compound": "COCc1ccc(CNc2ccc(C(C)C)cc2C2CCCCC2)o1 [Compound 7]", "cat": "fulfilled"}

**Q:** Bench note: check whether CC(C)c1ccc(NCc2ccc(CO)o2)c(C2CCCCC2)c1 [Compound 1] shows EC50 below 900 nM
**A:** not fulfilled

**Q:** Next up: CC(C)c1ccc(NCc2ccc(C3OCCO3)o2)c(C2CCCCC2)c1 [Compound 3]
**A:** not fulfilled

* * *

tested.system: G protein-coupled estrogen receptor (GPER) (Homo sapiens, UniProt Q99527)
Construct: siRNA was used to knock-down expression of GPER; endogenous in cells; host or cells: HL-60 (human myelocytic leukemia) cells
assay.protocol: calcium mobilization assay in HL-60 cells (Indo-1AM)
Format: cell-based
condition: triplicate runs on triplicate plates, read-out: EC50 (Ca^2+)
experimental.endpoint: pEC50
Give only the number. pEC50 is defined as minus log10 of concentration in molar units.

Take a look at these entries with their results.
{"compound": "CCOCc1ccc(CNc2ccc(C(C)C)cc2C2CCCCC2)o1", "pEC50": 7.29}
{"compound": "COCc1ccc(CNc2ccc(C(C)C)cc2C2CCCCC2)o1", "pEC50": 7.22}
{"compound": "CC(C)c1ccc(NCc2ccc(C3CCCCO3)o2)c(C2CCCCC2)c1 (stereo not shown)", "pEC50": 7.41}
{"compound": "COc1ccc(CNc2ccc(C(C)C)cc2C2CCCCC2)cn1", "pEC50": 7.28}
{"compound": "CC(C)c1ccc(NCc2ccc(C3OCCO3)o2)c(C2CCCCC2)c1", "pEC50": 7.03}

**Q:** Please look up its pEC50: "CC(C)c1ccc(NCc2ccc(CO)o2)c(C2CCCCC2)c1"
**A:** 5.89

**Q:** Next up: "CC(C)c1ccc(NCc2ccoc2)c(C2CCCCC2)c1"
**A:** 6.16

* * *

tested.system: GPER (Homo sapiens)
Construct: siRNA was used to knock-down expression of GPER; endogenous in cells; host or cells: HL-60 (human myelocytic leukemia) cells
Sequence (Q99527 whole entry): as above
assay.protocol: calcium mobilization assay, agonists tested against EC50 of GPER antagonist G-36
Format: cell-based
condition: agonist at 100 nM against EC50 of G-36; normalized
experimental.endpoint: change in calcium efflux in response to G-36

{"compound": "CC(C)c1ccc(NCc2ccc(C3CCCCO3)o2)c(C2CCCCC2)c1 (stereo not drawn)", "value.measured": "significant reduction"}
{"compound": "CC(C)c1ccc(NCc2ccoc2)c(C2CCCCC2)c1", "value.measured": "significant increase"}
{"compound": "CC(C)c1ccc(NCc2ccc(C3OCCO3)o2)c(C2CCCCC2)c1", "value.measured": "significant reduction"}
{"compound": "CC(C)c1ccc(NCc2ccc(CO)o2)c(C2CCCCC2)c1", "value.measured": "significant increase"}

Source listed as patent US12037327B2.
